System: T-47D
Assay: NCI 60-cell drug screen, Breast Cancer T-47D
Assay type: cell-based, human
Conditions: 1.00E−5 Molar
Returns one of condition met or condition not met; condition met when Growth Percent, T-47D is >= 70%.

Is the recorded value of Growth Percent, T-47D equal to or greater than 70% for this compound? O=C1c2ccccc2C(=O)c2c1ccc1nc(SCCN3CCCC3)[nH]c21
condition met

Has O=C1c2ccccc2C(=O)c2c1ccc1nc(S)[nH]c21 a recorded Growth Percent, T-47D greater than or equal to 70%?
condition met

Determine whether measured Growth Percent, T-47D meets or exceeds 70% for O=C1c2ccccc2C(=O)c2c1ccc1nc3n(c21)CCS3
condition met

Item CCSc1nc2ccc3c(c2[nH]1)C(=O)c1ccccc1C3=O with Growth Percent, T-47D of 70% or above?
condition not met

Is the recorded value of Growth Percent, T-47D equal to or greater than 70% for this compound? CCCSc1nc2ccc3c(c2[nH]1)C(=O)c1ccccc1C3=O
condition not met

Continuing:
Is reported Growth Percent, T-47D greater than or equal to 70% here: CN(C)CCCSc1nc2ccc3c(c2[nH]1)C(=O)c1ccccc1C3=O
condition not met

====

Would you mind telling me the reported Cell survival rate (%) GBM8901 of each entry?
System: GBM8901
Experiment: MTT assay, GBM8901 tumor cell
Conditions: concentration 10 μM, tumor cell
Report the figure along with its unit, number first.

Cell survival rate (%) GBM8901 reading for O=C1c2ccccc2C(=O)c2c1ccc1nc(SCCC(=O)N3CCOCC3)[nH]c21 : 48 ± 1%

The reported value for C#CCSc1nc2ccc3c(c2[nH]1)C(=O)c1ccccc1C3=O in terms of Cell survival rate (%) GBM8901 is 7 ± 2%

CN(C)CCCSc1nc2ccc3c(c2[nH]1)C(=O)c1ccccc1C3=O has a reported Cell survival rate (%) GBM8901 of 63 ± 4%

O=C(CCc1ccccc1)Sc1nc2ccc3c(c2[nH]1)C(=O)c1ccccc1C3=O has a reported Cell survival rate (%) GBM8901 of 72 ± 6%

# Cell survival rate (%) GBM8901 (compound: CCCCSc1nc2ccc3c(c2[nH]1)C(=O)c1ccccc1C3=O ) is 10 ± 4%

# Cell survival rate (%) GBM8901 of O=C1c2ccccc2C(=O)c2c1ccc1nc(SCCC(=O)N3CCCC3)[nH]c21 = 28 ± 2%

I would be grateful if you could provide Cell survival rate (%) GBM8901 for each of the following entries.
1. CCN(CC)C(=O)CSc1nc2ccc3c(c2[nH]1)C(=O)c1ccccc1C3=O
2. O=C1c2ccccc2C(=O)c2c1ccc1nc(SCC(=O)N3CCOCC3)[nH]c21
3. COC(=O)/C=C/CSc1nc2ccc3c(c2[nH]1)C(=O)c1ccccc1C3=O

1. 42 ± 3%
2. 39 ± 2%
3. 44 ± 5%

====

System: U251
Assay: NCI 60-cell drug screen, CNS Cancer U251
Assay type: cell-based, human
Details: 1.00E−5 Molar
reported-property: Growth Percent, U251 (%)
Numbers only, in %.

For each entry beneath this line, provide reported Growth Percent, U251.
1. CCSc1nc2ccc3c(c2[nH]1)C(=O)c1ccccc1C3=O
2. O=C1c2ccccc2C(=O)c2c1ccc1nc(SCCN3CCCC3)[nH]c21
3. CN(C)CCCSc1nc2ccc3c(c2[nH]1)C(=O)c1ccccc1C3=O
4. CCCSc1nc2ccc3c(c2[nH]1)C(=O)c1ccccc1C3=O

1. 65.03
2. 69.07
3. 74.11
4. 62.95

Required: Growth Percent, U251, one value per compound below.
1. O=C1c2ccccc2C(=O)c2c1ccc1nc3n(c21)CCS3
2. O=C1c2ccccc2C(=O)c2c1ccc1nc(S)[nH]c21

1. 72.48
2. 88.79
